Below is a list of entries, each paired with its recorded percentage of input antibody bound value.
Molecular target: T1, Cynomolgus monkey glycophorin A on Cynomolgus monkey red blood cells or red blood cell membranes (Cynomolgus monkey)
T1 construct: whole, on cells; also called Cyno RBC; Cynomolgus monkey RBC membranes
Test: Fab on intact cyno RBC, unbound Fab by ELISA; 60 min after 200-fold dilution
State the answer as a number, implicitly in %.

binder | percentage of input antibody bound / %
TPP-7794, affinity matured 6C12 Fab (Fab, V domains shown, Tested as Fab) VH: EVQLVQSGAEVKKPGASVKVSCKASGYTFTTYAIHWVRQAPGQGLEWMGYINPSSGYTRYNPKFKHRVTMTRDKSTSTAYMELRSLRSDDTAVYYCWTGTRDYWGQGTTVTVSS VL: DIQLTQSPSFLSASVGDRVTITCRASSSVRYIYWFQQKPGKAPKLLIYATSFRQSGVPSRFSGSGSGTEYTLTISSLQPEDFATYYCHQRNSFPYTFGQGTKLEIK | 67
TPP-7790, affinity matured 6C12 Fab (Fab, V domains shown, Tested as Fab with a 6xHIS tag) VH: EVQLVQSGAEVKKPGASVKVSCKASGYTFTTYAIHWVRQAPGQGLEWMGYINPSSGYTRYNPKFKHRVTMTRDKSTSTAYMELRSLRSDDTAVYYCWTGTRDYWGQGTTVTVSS VL: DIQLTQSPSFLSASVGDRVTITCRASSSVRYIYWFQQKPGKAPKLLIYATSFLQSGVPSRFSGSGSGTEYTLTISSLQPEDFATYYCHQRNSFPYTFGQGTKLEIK | 87

## Task Quick check: percentage of input antibody bound of TPP-7797, affinity matured 6C12 Fab (Fab, V domains shown, Tested as Fab) VH: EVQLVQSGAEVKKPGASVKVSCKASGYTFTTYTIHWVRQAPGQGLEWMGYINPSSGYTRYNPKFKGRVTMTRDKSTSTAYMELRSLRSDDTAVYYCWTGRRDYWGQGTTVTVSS VL: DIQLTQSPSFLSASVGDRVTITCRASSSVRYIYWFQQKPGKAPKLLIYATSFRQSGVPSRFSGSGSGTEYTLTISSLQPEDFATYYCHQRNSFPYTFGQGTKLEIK ?
## Result 56

These measurements were taken from patent US20190359687A1.
